Numbers sourced from PubChem BioAssay (EPA / NIEHS).

- experimental.target: Transcription factor Sp1 (Homo sapiens) (UniProt P08047)
- Sequence (P08047 whole entry, looked up): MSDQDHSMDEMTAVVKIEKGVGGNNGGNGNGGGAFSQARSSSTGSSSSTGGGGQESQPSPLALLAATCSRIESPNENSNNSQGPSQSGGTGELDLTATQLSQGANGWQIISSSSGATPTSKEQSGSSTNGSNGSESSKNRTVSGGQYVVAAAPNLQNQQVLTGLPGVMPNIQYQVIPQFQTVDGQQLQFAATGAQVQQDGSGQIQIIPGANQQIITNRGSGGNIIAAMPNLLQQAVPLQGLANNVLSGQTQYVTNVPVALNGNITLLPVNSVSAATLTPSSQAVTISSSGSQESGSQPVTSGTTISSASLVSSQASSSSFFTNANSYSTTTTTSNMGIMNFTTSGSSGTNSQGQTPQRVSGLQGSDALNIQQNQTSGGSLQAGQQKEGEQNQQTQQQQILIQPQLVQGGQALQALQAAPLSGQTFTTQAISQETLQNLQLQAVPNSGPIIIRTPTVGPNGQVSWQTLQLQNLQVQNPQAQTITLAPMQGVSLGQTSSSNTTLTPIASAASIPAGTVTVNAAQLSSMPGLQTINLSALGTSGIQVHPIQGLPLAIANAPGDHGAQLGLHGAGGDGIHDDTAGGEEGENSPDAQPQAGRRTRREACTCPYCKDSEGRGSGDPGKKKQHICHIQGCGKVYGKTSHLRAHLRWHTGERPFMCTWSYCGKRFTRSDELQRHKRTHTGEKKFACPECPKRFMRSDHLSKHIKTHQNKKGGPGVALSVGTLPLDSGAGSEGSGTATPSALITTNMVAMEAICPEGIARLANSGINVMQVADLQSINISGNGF
- assay.method.text: ATG_Sp1_CIS: Attagene CIS-FACTORIAL HepG2 Assay for human Specificity Protein 1 (Sp1) (AID 2282961)
- condition.parameters: HepG2 Sp1 cis-reporter transcription, actives raise or lower the signal
Calls of active or inactive are those of the source. Rule for the calls: active = hit-call score of the fitted dose curve at least 0.9, where 1 is the maximum; inactive = score below 0.9.
Bench note: report the call from active, inactive

State the result this test recorded for NC(=O)c1c(Cl)cccc1Cl . inactive

State the result this test recorded for CNC(=C[N+](=O)[O-])NCCSCc1ccc(CN(C)C)o1 . inactive

State the result this test recorded for CCCO . inactive

State the result this test recorded for c1ccc(Cc2ccccc2)cc1 . inactive

State the result this test recorded for CC(C)C(=O)OCC=Cc1ccccc1 . inactive

State the result this test recorded for C=CC(O)CCCCC (configuration not stated) . inactive

State the result this test recorded for CC/C=C\CCCCO . inactive

State the result this test recorded for CC(=O)c1ccc(C)cc1 . inactive

State the result this test recorded for CC(O)CNCC(C)O (configuration not stated) . inactive

State the result this test recorded for CCCCCCCCCCCCS . inactive

State the result this test recorded for NS(=O)(=O)c1cc(C(=O)O)c(NCc2ccco2)cc1Cl . inactive

State the result this test recorded for CC(C)C(=O)c1ccccc1 . inactive

State the result this test recorded for O=S(=O)(O)c1cc(S(=O)(=O)O)c2c(N=Nc3ccccc3)c(O)ccc2c1 . inactive

State the result this test recorded for CC(CCO)CC(C)(C)C (configuration not stated) . inactive

State the result this test recorded for CCC(C)(C)C1CCC(=O)CC1 . inactive

State the result this test recorded for CC(=O)Oc1c(C)c(C)c2c(c1C)CC[C@@](C)(CCC[C@H](C)CCC[C@H](C)CCCC(C)C)O2 . inactive

State the result this test recorded for N#CCCNCCC#N . inactive

State the result this test recorded for O=c1cc(-c2ccc(O)cc2)oc2cc(O)cc(O)c12 . inactive

State the result this test recorded for CC(C)(C)c1cccc(O)c1 . inactive

State the result this test recorded for CCC(C)C1CCCCC1=O (configuration not stated) . inactive

State the result this test recorded for CCCCCCCCCCCCOCCOS(=O)(=O)O . inactive

State the result this test recorded for CCCCCCCC1CCCC1=O (configuration not stated) . inactive

State the result this test recorded for COc1ccc2[nH]cc(CCNC(C)=O)c2c1 . inactive

State the result this test recorded for CCCCCCCCCCCCOC(C)=O . inactive

State the result this test recorded for CC(=O)CC(=O)N(C)C . inactive

State the result this test recorded for CCCCCCCCOC(=O)c1ccc(O)cc1 . inactive

State the result this test recorded for C=CC(C)(CCC=C(C)C)OC(=O)CC (configuration not stated) . inactive

State the result this test recorded for N=C1N=C(N)c2ccccc21 . inactive

State the result this test recorded for CC(O)CN (configuration not stated) . inactive

State the result this test recorded for CCO[Si](CCC#N)(OCC)OCC . inactive

State the result this test recorded for CN(C)c1ccc(C=O)cc1 . inactive

State the result this test recorded for CCCCC/C=C\C=C\C(=O)OCC . active

---

- experimental.target: Retinoic acid receptor alpha (Homo sapiens) (UniProt P10276)
- Sequence (P10276 whole entry, looked up): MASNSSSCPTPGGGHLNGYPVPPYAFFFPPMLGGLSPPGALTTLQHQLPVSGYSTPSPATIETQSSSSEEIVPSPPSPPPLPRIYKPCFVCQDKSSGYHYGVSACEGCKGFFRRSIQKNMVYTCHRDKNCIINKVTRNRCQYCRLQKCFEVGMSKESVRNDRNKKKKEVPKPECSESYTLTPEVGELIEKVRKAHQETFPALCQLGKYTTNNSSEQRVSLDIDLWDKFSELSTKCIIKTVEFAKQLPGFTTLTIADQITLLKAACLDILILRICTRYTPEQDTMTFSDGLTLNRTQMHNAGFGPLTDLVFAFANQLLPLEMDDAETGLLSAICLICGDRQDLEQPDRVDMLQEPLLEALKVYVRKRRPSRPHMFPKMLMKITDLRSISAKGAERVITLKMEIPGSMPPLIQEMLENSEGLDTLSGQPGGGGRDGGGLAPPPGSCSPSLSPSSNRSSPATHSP
- assay.method.text: ATG_DR5_RAR_CIS: Attagene CIS-FACTORIAL HepG2 Assay for human Retinoic Acid Receptor Alpha (RARE), DR5 submotif (AID 2282934)
- condition.parameters: HepG2 Attagene cis-factorial RARE DR5 reporter, mRNA; actives raise or lower the signal
Calls of active or inactive are those of the source. The calls were made as follows: active = hit-call score of the fitted dose curve at least 0.9, where 1 is the maximum; inactive = score below 0.9.
Bench note: report the call from 1.0 for active, 0.0 for inactive

State the result this test recorded for CCCCCCCCCCCCCC(=O)OCC . 0.0

State the result this test recorded for CCCCCCCCCC(=O)OCC . 1.0

State the result this test recorded for OCCCO . 0.0

State the result this test recorded for CC1(C)CC(N)CC(C)(CN)C1 (centres undefined) . 0.0

State the result this test recorded for CC(C)(C)C1CCC(O)CC1 (centres undefined) . 0.0

State the result this test recorded for c1ccc2scnc2c1 . 0.0

State the result this test recorded for CC(=O)Nc1cc(S(=O)(=O)O)cc2cc(S(=O)(=O)O)c(N=Nc3ccccc3)c(O)c12 . 0.0

State the result this test recorded for [Cu+] . 0.0

State the result this test recorded for O=C(O)c1cc2ccccc2cc1O . 0.0

State the result this test recorded for CCOC(=O)C=Cc1ccccc1 . 0.0

State the result this test recorded for CCCc1ccc(O)cc1 . 0.0

State the result this test recorded for O=S1(=O)CC=CC1 . 0.0

State the result this test recorded for CC(=O)N(C)C . 0.0

State the result this test recorded for C=C(C)C(N)=O . 0.0

---

- Read-out: Early growth response protein 1 (EGR1) transcription factor, EGR1 (gene 1958)
- assay.method.text: LTEA_HepaRG_EGR1: Life Technologies and Expression Analysis (LTEA) Assay for Early growth response protein 1 (EGR1) transcription factor using HepaRG (AID 2283490)
- condition.parameters: mRNA level, 48 h; actives raise or lower the signal
Activity calls are given as the source filed them. How the source made its calls: active means hit-call score of the fitted dose curve at least 0.9, where 1 is the maximum; inactive means score below 0.9.
Bench note: report the call from t for active, f for inactive

State the result this test recorded for C#C[C@]1(O)CC[C@H]2[C@@H]3CCc4cc(O)ccc4[C@H]3CC[C@@]21C . f

State the result this test recorded for CCCCOCCOCCO . f

State the result this test recorded for COC(=O)c1ccc(C(=O)OC)cc1 . f

State the result this test recorded for O=C(c1ccc(OCCN2CCCCC2)cc1)c1c(-c2ccc(O)cc2)sc2cc(O)ccc12 . t

---

- experimental.target: X-box-binding protein 1 (Homo sapiens) (UniProt P17861)
- Sequence (P17861 whole entry, looked up): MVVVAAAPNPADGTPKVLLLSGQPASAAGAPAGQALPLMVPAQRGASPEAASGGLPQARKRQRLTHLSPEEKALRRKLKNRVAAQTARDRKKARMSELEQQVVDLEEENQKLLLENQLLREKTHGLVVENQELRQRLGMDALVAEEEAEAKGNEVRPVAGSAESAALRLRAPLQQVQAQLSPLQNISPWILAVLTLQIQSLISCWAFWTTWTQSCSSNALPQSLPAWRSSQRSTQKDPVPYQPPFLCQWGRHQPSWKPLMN
- assay.method.text: ATG_Xbp1_CIS: Attagene CIS-FACTORIAL HepG2 Assay for human X-box Binding Protein 1 (XBP1) (AID 2282972)
- condition.parameters: HepG2 XBP1 cis-element reporter, Attagene multiplex; actives raise or lower the signal
Calls of active or inactive are those of the source. The calls were made as follows: active = hit-call score of the fitted dose curve at least 0.9, where 1 is the maximum; inactive = score below 0.9.
Bench note: report the call from active, inactive

State the result this test recorded for N#CCCNCCC#N . inactive

State the result this test recorded for CC(C)=CC(=O)O . inactive

State the result this test recorded for CCOC(=O)COC(=O)c1ccccc1C(=O)OCC . inactive

State the result this test recorded for O=C1OC2(c3ccc(O)cc3Oc3cc(O)ccc32)c2ccccc21 . inactive

State the result this test recorded for CC(=O)c1ccc(O)cc1 . inactive

State the result this test recorded for O=C1CCCCCCCCCCCC(=O)OCCO1 . inactive

State the result this test recorded for Cc1ccccc1S . active

State the result this test recorded for N#CCCCC(C#N)CCC#N (stereo unspecified) . inactive

State the result this test recorded for CCOC(=O)CCCCCCCCC(=O)OCC . inactive

State the result this test recorded for CC(C)CCOC(=O)CC(C)C . inactive

State the result this test recorded for CCCCOCCOCCOCCO . inactive

State the result this test recorded for CCCC[N+](C)(CCCC)CCCC . inactive

State the result this test recorded for CCCCCCCCOS(=O)(=O)O . inactive

State the result this test recorded for Cc1cccc(C)c1 . inactive

State the result this test recorded for CCC(=O)OC/C=C(\C)CCC=C(C)C . inactive

State the result this test recorded for CC(C)CCCC(C)(C)O . inactive

---

- experimental.target: Cellular tumor antigen p53 (Homo sapiens) (UniProt P04637)
- Sequence (P04637 whole entry, looked up): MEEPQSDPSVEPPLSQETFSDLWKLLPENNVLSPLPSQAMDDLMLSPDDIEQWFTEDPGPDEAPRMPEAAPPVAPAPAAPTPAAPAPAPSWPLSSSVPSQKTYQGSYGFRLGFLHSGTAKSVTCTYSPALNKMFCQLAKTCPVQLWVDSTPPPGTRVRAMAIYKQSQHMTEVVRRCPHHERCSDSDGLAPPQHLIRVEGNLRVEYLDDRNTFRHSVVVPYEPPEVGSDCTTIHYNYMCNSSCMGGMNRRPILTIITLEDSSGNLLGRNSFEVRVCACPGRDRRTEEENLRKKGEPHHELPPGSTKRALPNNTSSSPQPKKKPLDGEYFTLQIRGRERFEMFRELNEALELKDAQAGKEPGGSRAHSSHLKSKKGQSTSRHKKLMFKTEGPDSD
- assay.method.text: TOX21_p53_BLA_p5_ratio: Tox21 HCT-116 p53 Agonism Beta-lactamase Assay, Ratio, Phase 5 (AID 2283599)
Inconclusive results are not listed. Active and inactive are the calls of the source. Rule for the calls: active = hit-call score of the fitted dose curve at least 0.9, where 1 is the maximum; inconclusive = response in the unintended direction; inactive = score below 0.9.
Bench note: report the call from active, inactive

State the result this test recorded for CCCCN(CCCC)CCCCCCN(CCCC)CCCC . inactive

State the result this test recorded for CCc1cccc(O)c1 . inactive

State the result this test recorded for COc1ccccc1NC(=O)CC(C)=O . inactive

State the result this test recorded for CCCCCC1CCC(=O)O1 (stereo not drawn) . inactive

State the result this test recorded for C=COCC1CCC(COC=C)CC1 (stereo not drawn) . inactive

State the result this test recorded for CC/C=C\CCOC(C)OCC (stereo not drawn) . inactive

State the result this test recorded for C=C(C)CCCC(C)CCO (stereo not drawn) . inactive

State the result this test recorded for COc1ccc2[nH]cc(CCNC(C)=O)c2c1 . inactive

State the result this test recorded for CC(C)C(=O)c1ccccc1 . inactive

State the result this test recorded for CC(C)N1C(=O)c2ccccc2C1=O . inactive

State the result this test recorded for COC(=O)c1ccc(C(=O)OC)cc1 . inactive

State the result this test recorded for CCC(C)COC(=O)CC(C)C (stereo not drawn) . inactive

State the result this test recorded for CC(=O)Oc1c(C)c(C)c2c(c1C)CC[C@@](C)(CCC[C@H](C)CCC[C@H](C)CCCC(C)C)O2 . inactive

State the result this test recorded for Cc1cccc(O)c1 . inactive

State the result this test recorded for CCCc1ccc(O)cc1 . inactive

State the result this test recorded for OC[C@@H](O)[C@H](O)[C@@H](O)[C@@H](O)CO . inactive

State the result this test recorded for NC(=O)NC(N)=O . inactive

State the result this test recorded for CCCCC/C=C\C=C\C(=O)OCC . active

State the result this test recorded for CC(C)(O)CCc1ccccc1 . inactive

State the result this test recorded for O=S(=O)(O)CCCN1CCOCC1 . inactive

State the result this test recorded for CC1=CC(=O)[C@H]2C[C@@H]1C2(C)C . inactive

State the result this test recorded for N#CCCCC(C#N)CCC#N (stereo not drawn) . inactive

State the result this test recorded for C=CC(C)CCCC(C)(C)O (stereo not drawn) . inactive

State the result this test recorded for CN(C)C . inactive

State the result this test recorded for CCOC(=O)CCCCCCCCC(=O)OCC . inactive

State the result this test recorded for C=C(C)C(=O)OCCC[Si](OC)(OC)OC . inactive

State the result this test recorded for C=CCS(=O)(=O)O . inactive

State the result this test recorded for CC(=O)CCc1ccc(O)cc1 . inactive

State the result this test recorded for c1ccc2scnc2c1 . inactive

State the result this test recorded for c1ccc(-c2nn[nH]n2)cc1 . inactive

State the result this test recorded for NC(N)=S . inactive

State the result this test recorded for NCCCOCCOCCOCCCN . inactive

State the result this test recorded for CCOC(=O)CC1(C)OCC(C)O1 (stereo not drawn) . inactive
